# System: HCT-116
# protocolDescription: Antiproliferative activity against human HCT-116 cells assessed as cell growth inhibition and measured after 72 hrs by CCK8 assay
# measurementParameters: HCT-116, 72 h
Quick reference: IC50 of the listed items.
The response must be a number in µM with no trailing unit.

{"columns": ["chemicalSmiles", "systemName", "IC50 / µM"],
 "data": [
  ["Cc1ccc(-n2nc3c(=O)n(CCCC(=O)NCCOCCOCCNC(=O)CC45CC6CC(CC(C6)C4)C5)nc(C)c3c2C)cc1", "HCT-116", 18.5]
]}

Let us move to another entry and its IC50.
// query Supply IC50 value. Item: Cc1ccc(-n2nc3c(=O)n(CCCC(=O)NCCCCCCNC(=O)CC45CC6CC(CC(C6)C4)C5)nc(C)c3c2C)cc1
// result 7.7

---

# Tested on: HCT-116
# protocolDescription: Antiproliferative activity against human HCT-116 cells assessed as cell growth inhibition and measured after 72 hrs by CCK8 assay
# measurementParameters: HCT-116, 72 h
readout: pIC50
The value called pIC50 is obtained by taking minus log10 of the concentration in mol/L.

{"columns": ["chemicalSmiles", "readout", "val"],
 "data": [
  ["Cc1ccc(-n2nc3c(=O)n(CCCC(=O)NCCCC(=O)NCC45CC6CC(CC(C6)C4)C5)nc(C)c3c2C)cc1", "pIC50", 4.94],
  ["Cc1ccc(-n2nc3c(=O)n(CCCC(=O)NCCNC(=O)CC45CC6CC(CC(C6)C4)C5)nc(C)c3c2C)cc1", "pIC50", 4.69],
  ["Cc1ccc(-n2nc3c(=O)n(CCCC(=O)NCCCCCC(=O)NCC45CC6CC(CC(C6)C4)C5)nc(C)c3c2C)cc1", "pIC50", 4.49]
]}

// query Specify the recorded pIC50 for Cc1ccc(-n2nc3c(=O)n(CCCC(=O)NCCc4ccc(NC(=O)CCCC(=O)NCC56CC7CC(CC(C7)C5)C6)cc4)nc(C)c3c2C)cc1 , system: HCT-116.
// result 4.41

// query Specify the recorded pIC50 for Cc1ccc(-n2nc3c(=O)n(CCCC(=O)NCCCCCCCCNC(=O)CC45CC6CC(CC(C6)C4)C5)nc(C)c3c2C)cc1 , system: HCT-116.
// result 4.75

Cited source: ChEMBL document CHEMBL5038671
